measurementNotes: PK study of compound in dogs
Assay type: in vivo
conditionDescription: plasma; Beagle dog, PO 10 mg/kg, saline; read-out: Bioavailability F %
endpointName: bioavailability
Could you write the number and then its unit?

Prompt: State the recorded bioavailability for this entry: CN(C)Cc1nc(Nc2ccc(-c3cnc4cc(F)ccn34)c3c2C(=O)NC3)ccc1C1CCOCC1 [Compound D1, reference compound]
Response: 11.6%

---

Recorded measurements of Maximum induction factor, one per entry
Tested on: human peripheral blood mononuclear cells
measurementNotes: Detection of IFN-γ secretion in human peripheral blood mononuclear cells (anti-CD3/CD28 beads, ELISA)
Type: cell-based
conditionDescription: IFN-γ secretion, human PBMC
Reply with the value as a number alone.

>>> experimentalresult("Cc1ccn2c(-c3ccc(Nc4ccc5c(n4)C(N(C)C)CC54CCOCC4)c4c3CNC4=O)cnc2c1 (stereo not shown)")
6.4

Prompt: Tell me the measured Maximum induction factor of CN(C)C1CC2(CCOCC2)c2ccc(Nc3ccc(-c4cnc5cc(F)ccn45)c4c3C(=O)NC4)nc21 (stereo not shown) , please.
Response: 5.9

Prompt: Give the measured Maximum induction factor of O=C1NCc2c(-c3cnc4cc(F)ccn34)ccc(Nc3ccc4c(n3)C(N3C5CCC3COC5)CC43CCOCC3)c21 (stereo not shown) .
Response: 9.6

Prompt: Find the recorded Maximum induction factor belonging to CN(C)C1CC2(CCOCC2)c2ccc(Nc3ccc(-c4cnc5cc(C6CC6)ccn45)c4c3C(=O)NC4)nc21 (stereo not shown) and report it.
Response: 9.2

Prompt: Entry O=C1NCc2c(-c3cnc4cc(Cl)ccn34)ccc(Nc3ccc4c(n3)C(N3CCCC3)CC43CCOCC3)c21 (stereo not shown) has what Maximum induction factor?
Response: 5.3

Prompt: For O=C1NCc2c(-c3cnc4cc(Cl)ccn34)ccc(Nc3ccc4c(n3)CCCC43CCOCC3)c21 , what is its reported Maximum induction factor?
Response: 16.2

Prompt: Would you kindly share the measured Maximum induction factor for O=C1NCc2c(-c3cnc4cc(F)ccn34)ccc(Nc3ccc4c(n3)C(NCC(F)F)CC43CCOCC3)c21 (stereo not shown) ?
Response: 14.1
